# System name: T1, GFP-tagged WD40 domain of human Cdh1 (aa 165–484), for SMOR (human, UniProt Q9UM11 165-484)
# T1 construct: human Cdh1, WD40 domain, aa 165-484; also called hCdh1^WD40; human Cdh1^WD40; source: Sf9, baculovirus, purified (StrepTrap); not shown: 2xStrep-Tag II, N-terminal, kept; GFP, C-terminal, kept
# T1 sequence (Q9UM11 165-484): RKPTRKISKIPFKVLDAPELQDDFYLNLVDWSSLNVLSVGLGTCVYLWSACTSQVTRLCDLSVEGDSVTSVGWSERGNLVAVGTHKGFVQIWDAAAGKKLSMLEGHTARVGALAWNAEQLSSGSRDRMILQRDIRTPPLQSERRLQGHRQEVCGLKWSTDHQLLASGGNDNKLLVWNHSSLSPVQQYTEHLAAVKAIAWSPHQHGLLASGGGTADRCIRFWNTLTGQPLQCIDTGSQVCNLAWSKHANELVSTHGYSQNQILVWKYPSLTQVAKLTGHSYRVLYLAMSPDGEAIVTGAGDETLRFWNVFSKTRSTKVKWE
# Method: single-molecule off-rate (SMOR) assay, TIRF microscopy; target held on PEG/PEG-biotin glass by NeutrAvidin and biotinylated anti-Strep-Tag II antibody (tag on the activator); dye-labeled ligand (peptide no greater than 1 nM) in buffer C + BSA (20 mM HEPES pH 7.5, 150 mM KCl, 10% glycerol, 0.05% Tween-20, 1 mM DTT) with oxygen scavengers; mean dwell time from an exponential distribution; dwell times below 100 ms …
# Test conditions: both partners purified
Where no end group is shown, it is not given here. Cy5 = cyanine-5 fluorescent label
Param label: returns Yes when mean dwell time < 0.9 s, returns No otherwise, including exact equality.

[[record]]
binder = "EQKPKRAALSDITNSFNKMNK-Cy5 [Cy5-labeled Hsl1 D box peptide]"
cat = "No"

[[record]]
binder = "PANEDKENNIVYTGK-Cy5 [Cy5-labeled ySecurin KEN peptide]"
cat = "Yes"

[[record]]
binder = "LPKATRKALGTVNRATEKSVKK-Cy5 [Cy5-labeled AurKB D box peptide]"
cat = "Yes"

[[record]]
binder = "GVSTNKENEGPEYPTKIEK-Cy5 [Cy5-labeled Hsl1 KEN peptide]"
cat = "No"


QUERY: Given the entry LIYVDKENGEPGTRK-Cy5 [Cy5-labeled hSecurin KEN box peptide] , would its reported mean dwell time be below 0.9 s?
RESULT: Yes

Hello, the source for this data is paper PMC8764033, in case you need it.
